System: Pseudomonas aeruginosa
Test: Minimum inhibitory concentration against the strains of Pseudomonas aeruginosa that produce the beta-lactamases
Assay type: functional
Listed compounds paired with reported MIC

COMPOUND | DATA_VALUE
CC(C)(C)OC(=O)N1CC[C@@H]2[C@H]1C(=O)N2S(=O)(=O)O | 8 µg/mL

Q. Supply reported MIC belonging to this compound: NC(=O)c1ccc(NC(=O)N2CC[C@@H]3[C@H]2C(=O)N3S(=O)(=O)O)cc1
A. 4 µg/mL

Q. Supply reported MIC belonging to this compound: CC(C)(C)OC(=O)N1CCC2C1C(=O)N2OS(=O)(=O)[O-].[Na+] (stereo not given)
A. 32 µg/mL

Q. Supply reported MIC belonging to this compound: NC(=O)c1ccc(NC(=O)N2CCC3C2C(=O)N3OS(=O)(=O)[O-])cc1.[Na+] (stereo not given)
A. 128 µg/mL

Q. Supply reported MIC belonging to this compound: CC(C)(C)OC(=O)N1CCC2C1C(=O)N2OCC(=O)OCc1ccccc1 (stereo not given)
A. > 16 µg/mL
